Source of measurements: ChEMBL document CHEMBL3784920

Activity for assorted compounds
system: Oryctolagus cuniculus; test: Toxicity in New Zealand white rabbit assessed as heart weight at 1.79 umol/kg, administered as single bolus dose (reference value: 7.2 +/- 0.3 g); assay type: organism-based; conditions: in vivo
Property Name: Activity (g)

[[record]]
compound = "NC(=S)c1ccc(OC[C@H]2O[C@@H](n3cnc4c(N)ncnc43)[C@H](O)[C@@H]2O)cc1"
numeric_result = 7.6

[[record]]
compound = "Nc1ncnc2c1ncn2CCCCO"
numeric_result = 7.3

[[record]]
compound = "[Na+].[SH-] [SODIUM HYDROSULFIDE]"
numeric_result = 7.1

[[record]]
compound = "NC(=S)c1ccc(OCCCCn2cnc3c(N)ncnc32)cc1"
numeric_result = 7.2

[[record]]
compound = "NC(=O)c1ccc(OCCCCn2cnc3c(N)ncnc32)cc1"
numeric_result = 7.3

